- condition.description: basic group
Tag: YES if measured pKa is not below 9, NO if it is.

| chemical.smiles | assigned.category |
| --- | --- |
| CC(C)(N)CO | YES |
| CC(C)(N)CN | YES |
| CC(=O)N1CCNc2ncnc(C)c21 | NO |
| O=C(O)c1cc2ccccc2[nH]1 | NO |
| Cn1cc[nH+]c1N=[N+]=[N-] | NO |

Shifting focus to the compound that follows.
Is it the case that Oc1ccccc1CNC1CCCCC1 has pKa reaching or exceeding 9?
NO

---

- condition.description: basic group
property.measured: pKa
Just the number, please.

| molecule | pKa |
| --- | --- |
| N[C@H]1CC(=O)N(CCCC[C@H]([NH3+])C(=O)[O-])C1=O | 6 |
| C1CN(CC2CO2)CCO1 (configuration not stated) | 5.88 |
| CCC(C)N(C)c1ccccc1 (configuration not stated) | 6.03 |
| C[C@]1([NH3+])C[C@@H]1N | 5.83 |
| Nc1cncn1[C@H]1O[C@@H](CO)[C@H](O)[C@@H]1O | 6.05 |
| c1ccc([C@@H]2CN3CCC[C@@H]3c3ccccc32)cc1 | 9.12 |

Continue with the next molecule.
Sample CNc1ccncn1 ; pKa observed: 6.12

---

Consider the following compounds and their measured pKa readings.
- condition.description: basic group

Illustrative cases are given below, each with its answer.
| compound | pKa |
| --- | --- |
| CC[NH+](CC)CCCC(C)Nc1ccnc2ccccc12 (configuration not stated) | 8.81 |
| NCCCCO | 10.3 |
| CCN(C)CC | 10.4 |
| Cn1cnc2c(N)nc[nH+]c21 | -0.59 |
| Cc1cc([O-])nc(-n2nc(C)cc2O)n1 | 10 |
| CN(C)c1ccc2c(c1)Sc1cc([NH+](C)C)ccc1N2 | 5.27 |

Continue with the next compound.
Sample c1ccc(CNc2ncnc3[nH]cnc23)cc1 ; pKa observed: 4.09

---

- condition.description: acidic group
Tag: Fulfilled if measured pKa is not below 4, Not fulfilled if it is.

Sample answers from the record:
| molecule | assigned.category |
| --- | --- |
| CC(=O)N(C)CC(=O)O | Not fulfilled |
| CC(=O)[n+]1cccc(Cl)c1 | Not fulfilled |
| Cc1cccc(C(O)C(C(=O)O)c2ccc(-c3ccccc3)cc2)c1 (stereo unspecified) | Fulfilled |

Is it the case that Nc1ccccc1B(O)O has pKa reaching or exceeding 4?
Fulfilled

Is it the case that CC(=O)c1cc(C(=O)c2ccccc2)n[nH]1 has pKa reaching or exceeding 4?
Fulfilled

Is it the case that CC(C)(C)c1ccc2c(c1)C(=O)NC2=O has pKa reaching or exceeding 4?
Fulfilled

---

- condition.description: acidic group
property.measured: pKa
Just the number, please.

| compound | measured.value |
| --- | --- |
| CCCc1c(-c2ccccc2)n[nH]c1O | 8 |
| COc1cc(C(=O)O)ccc1C | 4.13 |
| Nc1ccc(O)c(N)c1 | 10.4 |

Sample O=c1ccc2cc(O)c(O)cc2o1 ; pKa observed: 7.63

Sample Brc1ccccc1-c1nnn[nH]1 ; pKa observed: 3.83

Sample CC(C)C(N)C(N)=O (configuration not stated) ; pKa observed: 8

Sample O=S(=O)(Nc1cccc(C(F)(F)F)c1)c1ccccc1 ; pKa observed: 7.63

---

- condition.description: acidic group
property.measured: pKa
Just the number, please.

Illustrative cases are given below, each with its answer.
| compound | measured.value |
| --- | --- |
| Oc1ccc2cccnc2c1 | 8.85 |
| CC[NH2+]C(C)C(=O)O (stereo not given) | 2.22 |
| NCc1cccc(S(N)(=O)=O)c1 | 10.1 |
| O=C(O)c1coc2ccccc12 | 4.18 |
| S=c1[nH]c(SCc2ccccc2)c(-c2ccccc2)[nH]1 | 9.55 |

Sample N#Cc1ccccc1O ; pKa observed: 7.32

Sample Cc1cccc(NC=S)c1 ; pKa observed: 11.6

Sample O=C(O)c1ccc([N+](=O)[O-])c2cccnc12 ; pKa observed: 1.41

Sample CC1=C/C(=N\c2ccc(O)cc2)C(C(C)C)=CC1=O ; pKa observed: 8.85

Sample O=S(Cc1ccccc1)c1cnn[nH]1 (stereo not given) ; pKa observed: 6.09

---

Consider the following molecules and their measured pKa readings.
- condition.description: basic group

Illustrative cases are given below, each with its answer.
| chemical.smiles | pKa |
| --- | --- |
| C(C[NH2+]CCc1nnn[n-]1)NCCc1nnn[n-]1 | 6.3 |
| CC(C)C(N)C(C)C | 10.4 |
| N[C@@H]1C[C@H]2CCCC[C@@H]2C[C@@H]1[NH3+] | 6.36 |
| CC1(C)[C@@H](N)[C@@H]1[NH3+] | 5.97 |
| CCOC(=O)c1cnc(N)s1 | 3.04 |

Sample CCNc1nnc(-c2ccccc2)s1 ; pKa observed: 3

---

Consider the following compounds and their measured pKa readings.
- condition.description: acidic group
Just the number, please.

| compound | measured.value |
| --- | --- |
| O=C1[N-]C(=O)/C(=N/O)C(=O)N1 | 10.1 |

Continue with the next compound.
Sample O=Cc1cc(Br)ccc1O ; pKa observed: 7.4

---

- condition.description: acidic group
Consider the following compounds and their measured pKa readings.
Just the number, please.

Illustrative cases are given below, each with its answer.
| compound | pKa |
| --- | --- |
| CN(C)C(=O)CC(=O)c1ccncc1 | 7.75 |
| Cc1cc(Cc2cc(C)c(O)c(C)c2)c([O-])c([N+](=O)[O-])c1 | 11.1 |
| CC(=O)c1ccc(O)c(=O)cc1 | 5.01 |
| O=S(=O)(Nc1cccc(F)c1)c1ccccc1 | 7.54 |

Sample COc1ccc(O)c(Br)c1 ; pKa observed: 8.62

Sample C/C(=C\C=C\C(C)C(=O)O)[C@H]1C[NH2+][C@H](C(=O)[O-])[C@H]1CC(=O)O (stereo not given in full) ; pKa observed: 3.72

Sample Oc1cccc2ccncc12 ; pKa observed: 8.4

---

- condition.description: basic group
Tag: yes if measured pKa is not below 8, no if it is.

Sample answers from the record:
| chemical.smiles | assigned.category |
| --- | --- |
| O=C(CCCN1CCC(O)(c2ccccc2)CC1)c1ccccc1 | yes |
| CCN(CC)CC(=O)N(C)c1ccccc1C | yes |
| CN(CO)c1ccc(Cl)cc1 | no |

Is it the case that c1c[nH]cn1 has pKa reaching or exceeding 8?
no

Is it the case that O=C([O-])c1cccc2cc3ccccc3nc12 has pKa reaching or exceeding 8?
no

---

- condition.description: acidic group
Lab note: class by pKa, see zone 1 = under 5, zone 2 = from 5 up to 9, zone 3 = 9 and over

| compound | assigned.category |
| --- | --- |
| [O-]c1ccc(O)n[nH+]1 | zone 2 |
| O=C(O)Cc1ccc(-c2ccccc2)cc1 | zone 1 |
| C[N+](C)(C)O | zone 1 |

Bin this entry: CC(=O)CC(=O)Nc1cccc(C)c1
zone 3

Bin this entry: CCC[Si](C)(CCC)CC(=O)O
zone 2

---

Consider the following compounds and their measured pKa readings.
- condition.description: basic group
Just the number, please.

Illustrative cases are given below, each with its answer.
| chemical.smiles | pKa |
| --- | --- |
| CC1(C)OC(=O)C[C@H]2[C@@H](C(=O)[O-])NC[C@H]21 | 9 |
| COc1cc(NS(C)(=O)=O)ccc1-c1cn2cccnc2n1 | 4.17 |

Continue with the next compound.
Sample NCCCCc1ccccn1 ; pKa observed: 10.3

---

Consider the following compounds and their measured pKa readings.
- condition.description: basic group
Just the number, please.

| chemical.smiles | measured.value |
| --- | --- |
| Cc1cccc2ncccc12 | 5 |

Sample NNc1nncc2ccccc12 ; pKa observed: 7.25

Sample Nc1nc([S-])[nH+]c([O-])c1C1=CCCCC1 ; pKa observed: 7.11

Sample CC[NH+](CC)CCNc1cc(Nc2ccc(Cl)cc2)nc(C)n1 ; pKa observed: 5.42

Sample CC(C)CNCC(C)C ; pKa observed: 10.6

Sample Nc1ncc(-c2ccccc2)s1 ; pKa observed: 4.9

Sample Cc1cc(-c2ccccc2)nn2cc(CN3CCOCC3)nc12 ; pKa observed: 6.3

Sample O=C1c2ncnc([O-])c2C(=O)c2nc[nH]c21 ; pKa observed: 5.99

Sample O=C([O-])c1nc[nH]c1C(=O)[O-] ; pKa observed: 8.49

Sample CN(C)CCBr ; pKa observed: 7.55

Sample c1ccc(CN(Cc2ccccc2)Cc2ccccc2)cc1 ; pKa observed: 7.44

Sample c1ccc(-n2cccn2)nc1 ; pKa observed: 1.07

Sample C=CC(C)(C)NC(C)(C)C=C ; pKa observed: 10.1

Sample O=C1C=CN2C[C@@H]3C[C@@H](CN4CCCC[C@H]34)[C@@H]2C1 ; pKa observed: 9.25

meta.source: the pKa sets of Baltruschat and Czodrowski (2020)
